The reader will find reported MPL-mutCALR AUC values listed item by item below.
System: T1, human mutCALR on BaF3 cells stably expressing human MPL and human mutCALR (MPL-mutCALR cells) (human)
T1 construct: also called mutant calreticulin
T1 chain: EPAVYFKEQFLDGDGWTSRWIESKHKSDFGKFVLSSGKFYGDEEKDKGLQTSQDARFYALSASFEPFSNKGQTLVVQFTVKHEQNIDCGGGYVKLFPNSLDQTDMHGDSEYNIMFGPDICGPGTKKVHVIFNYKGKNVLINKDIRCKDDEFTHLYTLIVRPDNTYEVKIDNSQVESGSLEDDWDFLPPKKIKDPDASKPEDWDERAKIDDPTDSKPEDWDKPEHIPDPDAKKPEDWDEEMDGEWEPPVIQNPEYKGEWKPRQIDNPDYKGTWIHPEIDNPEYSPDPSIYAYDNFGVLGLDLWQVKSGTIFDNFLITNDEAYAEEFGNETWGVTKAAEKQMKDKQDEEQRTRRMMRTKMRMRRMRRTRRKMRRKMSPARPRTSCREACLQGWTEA
Test name: flow cytometry, BaF3 MPL-mutCALR cells
# respond with the number and nothing more

[[record]]
binder = "anti-mutCALR antibody clone 23 (antibody, human IgG1, lambda, V domains shown, human IgG1) VH: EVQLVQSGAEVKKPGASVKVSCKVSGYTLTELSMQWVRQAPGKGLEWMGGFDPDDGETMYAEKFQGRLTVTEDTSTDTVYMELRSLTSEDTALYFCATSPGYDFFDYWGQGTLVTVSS VL: SYVLTQPPSVSVAPGQTARITCGGNNIGIKSVHWYQQKPGQAPVLVVYDDSDRPSGIPERFSGSNSGNTATLTINRVEAGDEADYYCQVWDSSNDLLIFGGGTKLTVLG"
numeric_result = 65900

[[record]]
binder = "anti-mutCALR antibody clone 76 (antibody, human IgG1, lambda, N297A, V domains shown) VH: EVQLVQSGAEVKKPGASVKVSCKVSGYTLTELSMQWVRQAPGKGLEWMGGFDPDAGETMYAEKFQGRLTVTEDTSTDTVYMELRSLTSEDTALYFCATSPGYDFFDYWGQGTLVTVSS VL: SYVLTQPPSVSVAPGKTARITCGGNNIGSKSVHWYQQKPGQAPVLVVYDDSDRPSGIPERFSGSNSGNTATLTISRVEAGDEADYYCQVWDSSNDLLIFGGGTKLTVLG"
numeric_result = 55100


Alright, here's another binder for you.
Problem: # return recorded MPL-mutCALR AUC for entry anti-mutCALR antibody clone 33 (antibody, human IgG1, lambda, V domains shown, human IgG1) VH: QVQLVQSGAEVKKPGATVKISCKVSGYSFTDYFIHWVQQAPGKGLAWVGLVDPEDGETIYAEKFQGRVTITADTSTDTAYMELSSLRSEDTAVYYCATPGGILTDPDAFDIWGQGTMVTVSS VL: QSALTQPRSVSGSPGQSVTISCAGTGSDVGGYNHVSWYQHHPGKAPKLMIYDVNKRPSGVPDRFSGSKSGNTASLTISGLQAEDEADYYCSSYIPSSTRWVFGGGTKLTVLG
Result: 38700
